The measured values listed here are drawn from the Bradley open melting point set (2014).

Overview of recorded melting point for various compounds
Just the number in °C, nothing appended.

The examples below pair each entry with its known result.
1. NCCCCCCN :: 41
2. N#Cc1ccc2c(c1)N(CCCN1CCC(O)CC1)c1ccccc1S2 :: 116
3. Nc1ccc(N)cc1 [1,4-phenylenediamine] :: 142

*Q* Assign melting point to the following record: O=C[C@@H](O)[C@H](O)[C@H](O)CO
*A* 156

*Q* Assign melting point to the following record: OCCCCCCCCCO
*A* 47

*Q* Assign melting point to the following record: CC(=O)Nc1ccc(/C=C/c2ccc(NC(C)=O)cc2)cc1 [N,N'-[(E)-ethene-1,2-diyldibenzene-4,1-diyl]diacetamide]
*A* 219

*Q* Assign melting point to the following record: N#Cc1ccccc1
*A* -13

*Q* Assign melting point to the following record: CC(=O)Nc1c(Br)cc(N)cc1Br [4'-amino-2',6'-dibromoacetanilide]
*A* 248

*Q* Assign melting point to the following record: CC(=O)OCC1OC(C#N)=CC(OC(C)=O)C1OC(C)=O (stereo not given)
*A* 114

*Q* Assign melting point to the following record: OC[C@@H](O)[C@@H](O)[C@@H](O)CO
*A* 103
